- experimental_system: human CTPS1 (Homo sapiens)
- Sequence (P17812 whole entry): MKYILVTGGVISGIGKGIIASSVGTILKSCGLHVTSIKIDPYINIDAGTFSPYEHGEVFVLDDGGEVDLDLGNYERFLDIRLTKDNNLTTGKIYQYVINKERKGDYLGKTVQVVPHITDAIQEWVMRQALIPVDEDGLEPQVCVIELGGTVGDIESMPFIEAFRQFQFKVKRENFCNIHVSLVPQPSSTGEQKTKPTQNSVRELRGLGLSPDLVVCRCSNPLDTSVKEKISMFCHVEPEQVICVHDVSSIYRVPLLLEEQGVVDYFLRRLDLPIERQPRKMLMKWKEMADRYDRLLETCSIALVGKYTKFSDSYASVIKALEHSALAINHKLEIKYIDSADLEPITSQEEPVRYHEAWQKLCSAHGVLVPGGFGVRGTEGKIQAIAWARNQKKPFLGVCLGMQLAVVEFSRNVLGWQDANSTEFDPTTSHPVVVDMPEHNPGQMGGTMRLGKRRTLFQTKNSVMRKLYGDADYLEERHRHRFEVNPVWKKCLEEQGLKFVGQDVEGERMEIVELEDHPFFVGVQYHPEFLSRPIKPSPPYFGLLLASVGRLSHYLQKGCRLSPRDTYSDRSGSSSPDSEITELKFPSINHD
- procedure_details: ADP-Glo assay, human CTPS1 enzyme inhibition
- Type: biochemical
- condition: wild-type human CTPS1, 25 nM enzyme; ADP-Glo; read-out: ADP-Glo_WT_hCTPS1—25 nM_IC50 (IC50)
Structures can show the parent of a compound that is named as a salt.
In this section, each of the compounds is paired with its reported IC50.

• CN(C)C[C@@H](NC(=O)c1ncc(-c2cnn3ccc(Cl)cc23)s1)c1cc(NS(=O)(=O)C2CC2)ccn1 [I-165, formic acid salt] = 5 to 25 nM
• CCOc1cncc(-c2cnc(C(=O)N[C@H](c3cc(NS(=O)(=O)C4CC4)ccn3)[C@H](C)CN3CCCCC3)s2)n1 (stereo in doubt) = 5 to 25 nM
• CCOc1cncc(-c2cnc(C(=O)N[C@H](CN3C[C@H]4CC[C@@H]3CO4)c3cc(NS(=O)(=O)C4CC4)ccn3)s2)n1 = 25 to 50 nM

Lab book: IC50 of O=C(N[C@@H](c1cc(NS(=O)(=O)C2CC2)ccn1)[C@@H]1COCCO1)c1ncc(-c2cnn3ccc(Cl)cc23)s1 noted as 5 to 25 nM

IC50 reading for CCOc1cncc(-c2cnc(C(=O)N[C@@H](CN3C[C@H]4CC[C@@H]3CO4)c3cc(NS(=O)(=O)C4CC4)ccn3)s2)n1 : 50 to 100 nM

Just so you know, measured IC50 for CCOc1cncc(-c2cnc(C(=O)N[C@H](c3cc(NS(=O)(=O)C4CC4)ccn3)[C@@H]3CC(=O)N(C)C3)s2)n1 came out at 25 to 50 nM

O=C(N[C@@H](c1cc(NS(=O)(=O)C2CC2)ccn1)C1CCOCC1)c1ncc(-c2cnn3ccc(Cl)cc23)s1 has a reported IC50 of 5 to 25 nM
